# tested-on: Neutrophil collagenase (Homo sapiens, UniProt P22894)
# Sequence (P22894 whole entry): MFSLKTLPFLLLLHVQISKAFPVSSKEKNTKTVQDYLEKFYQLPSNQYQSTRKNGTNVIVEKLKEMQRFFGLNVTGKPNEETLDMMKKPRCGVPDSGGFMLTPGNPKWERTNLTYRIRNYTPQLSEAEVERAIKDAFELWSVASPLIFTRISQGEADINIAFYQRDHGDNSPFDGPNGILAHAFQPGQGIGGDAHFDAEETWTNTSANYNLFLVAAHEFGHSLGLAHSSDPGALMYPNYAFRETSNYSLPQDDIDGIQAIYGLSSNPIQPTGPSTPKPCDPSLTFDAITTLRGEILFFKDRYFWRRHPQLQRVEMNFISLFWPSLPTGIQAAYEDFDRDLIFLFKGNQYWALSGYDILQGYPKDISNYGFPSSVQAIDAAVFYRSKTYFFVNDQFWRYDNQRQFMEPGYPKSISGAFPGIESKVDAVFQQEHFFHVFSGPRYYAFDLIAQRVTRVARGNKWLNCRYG
# protocol-text: Inhibition of human neutrophil collagenase [Matrix Metalloprotease-8, MMP-8]
value-kind: log10 of IC50 (log10 of the value in nM)

O=C(NO)[C@H]1Cc2ccccc2CN1S(=O)(=O)c1ccc(OCc2ccc(F)cc2)cc1 ... 0.30
O=C(Nc1cccc(S(=O)(=O)N2Cc3ccccc3C[C@@H]2C(=O)NO)c1)c1ccccc1O ... 2.30
O=C(O)C(=O)[C@H]1Cc2ccc([N+](=O)[O-])cc2CN1S(=O)(=O)c1ccc(-c2ccc(F)cc2)cc1 ... 1.60
CN(C)c1ccc(-c2ccc(S(=O)(=O)N3Cc4ccccc4C[C@@H]3C(=O)C(=O)O)cc2)cc1 ... 0.00
O=C(NO)[C@H]1Cc2ccccc2CN1S(=O)(=O)c1ccc(-c2ccon2)s1 ... 0.90
O=C(O)C(=O)[C@H]1Cc2ccccc2CN1S(=O)(=O)c1ccc(-c2ccon2)s1 ... 2.78
O=C(NO)[C@H]1Cc2ccccc2CN1S(=O)(=O)c1cc(Br)c(Br)s1 ... 2.70
O=C(NO)[C@H]1Cc2ccccc2CN1S(=O)(=O)c1cc(S(=O)(=O)c2ccccc2)cs1 ... 3.30
